# EXPERIMENT NOTES: Brain penetration (brain homogenate AUCt, Kp,brain, Kp,uu,brain)
# CONDITION CONTEXT: C57BL/6N, mouse, brain, intravenous, 0.5 mg/kg, Kp,uu,brain, abstract; LPS and control mice
TEST READOUT: Kp uu

-- ask Entry Cc1cc2c(s1)Nc1ccccc1N=C2N1CCNCC1 needs its Kp uu filled in; supply it.
-- reply ≤ 0.051

====

# EXPERIMENT NOTES: in vivo
# CONDITION CONTEXT: mouse, in vivo, po, 4 mg/kg
TEST READOUT: CL/F (mL/min/kg)
Give the number; mL/min/kg is assumed, so skip it.

-- ask Provide only the value of recorded CL/F for Cc1cc2c(s1)Nc1ccccc1N=C2N1CCN(C)CC1
-- reply 552

====

# EXPERIMENT NOTES: Rapid equilibrium dialysis, binding in brain homogenates
# Assay type: in vitro ADME, mice
# CONDITION CONTEXT: C57BL/6N, mouse, pH 7.4, RED control samples spiked at 100 ng/mL; range; read-out: unbound fraction in brain homogenate, control samples
TEST READOUT: fraction unbound at 4 h, 100 ng/mL

O=c1n(CCCN2CCN(c3cccc(Cl)c3)CC2)nc2ccccn12	0.078 to 0.118

Proceeding to the next compound to report its fraction unbound at 4 h, 100 ng/mL.
-- ask Give the reported value of fraction unbound at 4 h, 100 ng/mL for this record: CN1CCN(C2=Nc3cc(Cl)ccc3Nc3ccccc32)CC1
-- reply 0.014 to 0.021

====

# EXPERIMENT NOTES: Rapid equilibrium dialysis, binding in brain homogenates
# Format: in vitro ADME, mice
# CONDITION CONTEXT: C57BL/6N, mouse, pH 7.4, control mice; mean (range); pooled samples; read-out: unbound fraction in the brain homogenate
TEST READOUT: fraction unbound at 4 h
# respond with the number and nothing more

-- ask Check the records and state fraction unbound at 4 h for Cc1cc2c(s1)Nc1ccccc1N=C2N1CCNCC1 [DMO, 4’-N-desmethylolanzapine]
-- reply 0.087

====

# EXPERIMENT NOTES: Brain penetration (brain homogenate AUCt, Kp,brain, Kp,uu,brain)
# CONDITION CONTEXT: C57BL/6N, mouse, brain, iv, 0.5 mg/kg, Kp,brain, Controls; 0.5 mg/kg IV DMO
TEST READOUT: Kp

-- ask Give the measured Kp for Cc1cc2c(s1)Nc1ccccc1N=C2N1CCNCC1
-- reply 0.077

====

# EXPERIMENT NOTES: in vivo
# CONDITION CONTEXT: C57BL/6N, mouse, plasma, iv, 0.5 mg/kg, AUCt plasma, LPS mice; 0.5 mg/kg IV olanzapine; t = 6 hours; mean (95% CI)
TEST READOUT: AUC(0-t) (ng·h/mL)
Dear colleague, please return just the value in ng·h/mL, with no unit written.

-- ask Look up and report measured AUC(0-t) for this entry: Cc1cc2c(s1)Nc1ccccc1N=C2N1CCNCC1
-- reply 57.6
